pKi: −log10 of the molar value.
System: 5-hydroxytryptamine receptor 7 (Rattus norvegicus, UniProt P32305) | Read-out: pKi | Origin: multiple publications
Sequence (P32305 whole entry): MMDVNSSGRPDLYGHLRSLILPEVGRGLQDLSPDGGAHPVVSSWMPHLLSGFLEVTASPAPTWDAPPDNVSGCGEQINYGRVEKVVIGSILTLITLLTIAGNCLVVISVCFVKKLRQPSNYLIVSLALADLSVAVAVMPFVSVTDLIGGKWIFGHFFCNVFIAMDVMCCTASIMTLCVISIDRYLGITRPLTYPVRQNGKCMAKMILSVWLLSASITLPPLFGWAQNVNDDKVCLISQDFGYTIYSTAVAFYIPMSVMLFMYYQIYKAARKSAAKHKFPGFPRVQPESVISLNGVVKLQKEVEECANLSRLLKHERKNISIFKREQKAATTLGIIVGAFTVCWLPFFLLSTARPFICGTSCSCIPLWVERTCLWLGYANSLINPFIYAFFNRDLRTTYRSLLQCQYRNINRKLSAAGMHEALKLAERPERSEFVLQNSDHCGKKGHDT
Hi, to clarify the labels: TRUE covers pKi from 7 upward, FALSE covers anything below 7.

Look over these answered cases.
{"COMPOUND": "Cc1c(NC2=NCCN2)cccc1-c1cccnc1", "LABEL_CLASS": "FALSE"}
{"COMPOUND": "O=C(CCCCCN1CCN(c2ccccc2-c2ccccc2)CC1)N1CCc2ccccc2C1", "LABEL_CLASS": "TRUE"}
{"COMPOUND": "O=C(CCCCN1CCN(c2noc3ccccc23)CC1)c1ccccc1O", "LABEL_CLASS": "TRUE"}
{"COMPOUND": "COc1cccc(OCCNCCCCN2C(=O)C3CCCN3C2=O)c1 (stereo not drawn)", "LABEL_CLASS": "FALSE"}
{"COMPOUND": "COc1ccccc1N1CCN(CCCNS(=O)(=O)c2ccc(C)cc2)CC1", "LABEL_CLASS": "TRUE"}
{"COMPOUND": "CN1CCc2ccc3c(=O)oc4cccc5c4c3c2[C@H]1C5", "LABEL_CLASS": "FALSE"}
{"COMPOUND": "CS(=O)(=O)Oc1ccc(CNC(=O)CCCCCN2CCN(c3ccccc3-c3ccccc3)CC2)cc1", "LABEL_CLASS": "TRUE"}
{"COMPOUND": "C[C@H]1c2cccc3c2-c2c1ccc1c2[C@@H](C3)N(C)CC1", "LABEL_CLASS": "TRUE"}
{"COMPOUND": "c1ccc(-c2c3c(nn2C2CC2)CCNCC3)cc1", "LABEL_CLASS": "TRUE"}
{"COMPOUND": "O=C1C2CCCN2C(=O)N1CCCCNCCOc1cccc2cccnc12 (stereo not drawn)", "LABEL_CLASS": "TRUE"}

For the next question, use this compound.
API: above_or_equal(metric=pKi, cutoff=7) for item `CN1CCc2cccc3c2[C@H]1Cc1cccc(-c2c(O)cccc2O)c1-3`
TRUE

----------
Below: molecules with pKi recorded for 5-hydroxytryptamine receptor 7 (Rattus norvegicus, UniProt P32305) in separate published works.
Interpret pKi as the negative base-10 log of the concentration measured in mol/L.

Recorded pKi, per entry:
{"MOLECULE": "O=C1NC2(CCc3ccccc32)C(=O)N1CCCCN1CCN(c2ccccc2)CC1 (configuration not stated)", "pKi": 7.03}
{"MOLECULE": "COc1ccccc1N1CCN(C/C=C\\CN2C(=O)c3ccccc3C2=O)CC1", "pKi": 6.45}
{"MOLECULE": "CCOc1nc2c(c(=O)n(C)c(=O)n2C)n1CCCCN1CCc2ccccc2C1", "pKi": 7.08}

I have this molecule here, `Cn1c(=O)c2c([nH]c(=O)n2CCCCN2CCN(c3ccccc3)CC2)n(C)c1=O` , and I need its recorded pKi.
5.74

What value of pKi has been reported for the following molecule? O=C1C2CCCN2C(=O)CN1CN1CCN(c2cccc3ccccc23)CC1 (configuration not stated)
7.00

What does the data say about its pKi? Entry: `CSc1ccccc1N1CCN(CCCCCC(=O)N2Cc3ccccc3C2)CC1`
7.38

Give the measured pKi of `COc1cccc(C(=O)CCCCCN2CCN(c3ccccc3OC)CC2)c1` .
7.34

Name the reported pKi value associated with the molecule `CC(=O)N[C@@H]1c2cccc3c2-c2c1ccc1c2[C@@H](C3)N(C)CC1`
6.27

pKi lookup needed for `CCCOc1nc2c(c(=O)n(C)c(=O)n2C)n1CCCCN1CCc2ccccc2C1` , thanks.
7.24

What value of pKi has been recorded for this entry: `CC(C)c1ccccc1N1CCN(CCCCCC(=O)NCc2ccccc2)CC1`
6.67

----------
For reference, the following pKi results for 5-hydroxytryptamine receptor 7 (Rattus norvegicus) were taken from various sources.
pKi: −log10 of the molar value.
Note to self: values exactly at 7 are class 1. So pKi at or above 7 is class 1, below is class 0.

Recorded results for 3 compounds are shown here.
{"COMPOUND": "O=C1C2CCCN2C(=O)N1CCCCNCCOc1cccc2c1CCCC2 (configuration not stated)", "LABEL_CLASS": "class 0"}
{"COMPOUND": "COc1ccc2c(c1)CCN(CCCNS(=O)(=O)c1ccc(C)cc1)C2", "LABEL_CLASS": "class 0"}
{"COMPOUND": "CCOc1ccccc1OCCNCCCCN1C(=O)C2CCCN2C1=O.Cl (configuration not stated)", "LABEL_CLASS": "class 1"}

Form field: pKi at least 7? Entry: O=C1NC2(CCc3ccccc32)C(=O)N1CCCCN1CCN(c2cccc(Cl)c2)CC1 (configuration not stated)
class 1

Item `COc1ccc2c(c1)CCN(CCCNS(=O)(=O)c1cccc3ccccc13)C2` with pKi of 7 or above?
class 0

Given the entry `COc1ccccc1N1CCN(CCCCC(=O)c2ccc(O)cc2)CC1` , answer whether its pKi meets or surpasses 7.
class 1

----------
Ki for 5-hydroxytryptamine receptor 7 (Rattus norvegicus, UniProt P32305) - collated from the literature.
Threshold 300 nM. Ki below it: 1. Ki at it or above: 0.

{"COMPOUND": "COc1ccccc1N1CCN(CCCCCC(=O)c2ccccc2)CC1", "STUDY_TARGET": "5-hydroxytryptamine receptor 7 (Rattus norvegicus, UniProt P32305)", "LABEL_CLASS": 1}
{"COMPOUND": "Cl.O=C1C2CCCN2C(=O)N1CCCCNCCc1cccc2ccccc12 (stereo unspecified)", "STUDY_TARGET": "5-hydroxytryptamine receptor 7 (Rattus norvegicus, UniProt P32305)", "LABEL_CLASS": 0}
{"COMPOUND": "O=C1NC2(CCCc3ccccc32)C(=O)N1CCCCN1CCN(c2cccc(Cl)c2)CC1 (stereo unspecified)", "STUDY_TARGET": "5-hydroxytryptamine receptor 7 (Rattus norvegicus, UniProt P32305)", "LABEL_CLASS": 1}
{"COMPOUND": "COc1cccc(OC)c1-c1ccc2c(c1)C[C@H](N(C)C)CO2", "STUDY_TARGET": "5-hydroxytryptamine receptor 7 (Rattus norvegicus, UniProt P32305)", "LABEL_CLASS": 0}

Problem: For the compound `CCN(CCCN1CCc2cc(OC)ccc2C1)S(=O)(=O)c1ccc(C)cc1` , is Ki under 300 nM?
1

Lab note: Ki threshold 300 nM. Does this compound come in strictly under it? `CCOc1nc2c(c(=O)n(C)c(=O)n2C)n1CCCCN1CCN(c2cccc(Cl)c2)CC1`
1

Please determine if CCc1cccc(OCCNCCCCN2C(=O)C3CCCN3C2=O)c1 (stereo unspecified) is below 300 nM in terms of Ki.
0

Hi there! Is Ki for `CO[C@@]1(C)c2cccc3c2-c2c1ccc1c2[C@@H](C3)N(C)CC1` below 300 nM, do you know?
1

----------
Listed below are molecules with pKi for 5-hydroxytryptamine receptor 7 (Rattus norvegicus), each taken from published literature.
pKi (log units): -log10 of the concentration in mol/L.

{"MOLECULE": "COc1ccc(OCCNCCCCN2C(=O)C3CCCN3C2=O)c2ccccc12 (stereo not drawn)", "QUANTITATIVE_READOUT": 6.52}
{"MOLECULE": "CCOc1nc2c(c(=O)n(C)c(=O)n2C)n1CCCN1CCN(c2ccccc2OC)CC1", "QUANTITATIVE_READOUT": 6.39}
{"MOLECULE": "COc1cccc(C(=O)CCCN2CCN(c3ccccc3OC)CC2)c1", "QUANTITATIVE_READOUT": 6.96}
{"MOLECULE": "CN1CCc2ccc3c4c2[C@H]1Cc1cccc(c1-4)[C@]3(C)O", "QUANTITATIVE_READOUT": 8.37}
{"MOLECULE": "CC(C)n1nc2c(c1-c1ccc(Cl)cc1Cl)CCNCC2", "QUANTITATIVE_READOUT": 6.40}
{"MOLECULE": "CC(=O)N[C@H]1c2cccc3c2-c2c1ccc1c2[C@@H](C3)N(C)CC1", "QUANTITATIVE_READOUT": 5.88}

For the record `CSc1ccccc1N1CCN(CCCCCC(=O)NCc2ccc(OS(C)(=O)=O)cc2)CC1` , what value of pKi is listed for 5-hydroxytryptamine receptor 7 (Rattus norvegicus)?
6.83

State its pKi on 5-hydroxytryptamine receptor 7 (Rattus norvegicus): `CC(C)c1ccccc1N1CCN(CCCCCC(=O)NCc2ccc(OS(C)(=O)=O)cc2)CC1`
7.12
